Test system: Candida albicans
Experiment: Antimicrobial activity against Candida albicans ATCC 12031 after 48 hrs by two-fold serial dilution method
Assay type: functional
Conditions: ATCC 12031, 48 h
Attribute: MIC
MEASURED_PROPERTY: MIC (µg/mL)

{"columns": ["COMPOUND", "STUDY_TARGET", "MEASURED_PROPERTY", "UNIT_LABEL", "MEAS_VALUE"],
 "data": [
  ["COc1ccc(C2CC(c3c(O)cc(C)c(Cl)c3C)=NN2)cc1 (centres undefined)", "Candida albicans", "MIC", "µg/mL", 50],
  ["COc1ccc(C2CC(c3c(O)cc(C)c(Cl)c3C)=NO2)cc1OC (centres undefined)", "Candida albicans", "MIC", "µg/mL", 12.5],
  ["COc1ccccc1C1CNN=C1C(=O)c1c(OC)cc(C)c(Cl)c1C (centres undefined)", "Candida albicans", "MIC", "µg/mL", 12.5],
  ["Cc1cc(O)c(C2=NNC(c3ccc(N(C)C)cc3)C2)c(C)c1Cl (centres undefined)", "Candida albicans", "MIC", "µg/mL", 12.5],
  ["COc1cc(C2CC(c3c(O)cc(C)c(Cl)c3C)=NN2)cc(OC)c1OC (centres undefined)", "Candida albicans", "MIC", "µg/mL", 12.5],
  ["Cc1cc(O)c(C2=NOC(c3ccc(Cl)cc3)C2)c(C)c1Cl (centres undefined)", "Candida albicans", "MIC", "µg/mL", 12.5],
  ["COc1ccc(C2CC(c3c(O)cc(C)c(Cl)c3C)=NO2)cc1 (centres undefined)", "Candida albicans", "MIC", "µg/mL", 12.5],
  ["COc1cc(C)c(Cl)c(C)c1C(=O)C1=NNCC1c1ccccc1[N+](=O)[O-] (centres undefined)", "Candida albicans", "MIC", "µg/mL", 25],
  ["COc1cc(C)c(Cl)c(C)c1C(=O)C1=NNCC1c1ccccc1 (centres undefined)", "Candida albicans", "MIC", "µg/mL", 25],
  ["COc1ccc(C2CC(c3c(O)cc(C)c(Cl)c3C)=NN2)cc1OC (centres undefined)", "Candida albicans", "MIC", "µg/mL", 12.5],
  ["Cc1cc(O)c(C2=NOC(c3ccccc3Cl)C2)c(C)c1Cl (centres undefined)", "Candida albicans", "MIC", "µg/mL", 12.5],
  ["OC(Cn1cncn1)(Cn1cncn1)c1ccc(F)cc1F", "Candida albicans", "MIC", "µg/mL", 12.5],
  ["Cc1cc(O)c(C2=NOC(c3ccccc3)C2)c(C)c1Cl (centres undefined)", "Candida albicans", "MIC", "µg/mL", 25],
  ["Cc1cc(O)c(C2=NNC(c3cccc(O)c3)C2)c(C)c1Cl (centres undefined)", "Candida albicans", "MIC", "µg/mL", 12.5]
]}
